Target: hNav1.7 (Homo sapiens (Human))
Test: Tritiated sulfonamide competitive binding to membranes from cells expressing hNav1.7 and the β1 subunit
Where a name gives a salt, the structure may show the parent alone.
measured_metric: IC50 (nM)
Write it as a number; the unit nM goes unstated.

O=C(NS(=O)(=O)C1CC1)c1cc(C2CC2)c(CN2CCN(Cc3cc(Cl)cc(Cl)c3)CC2)cc1F [Example 518, trifluoroacetic acid salt]; 8.2
C[C@H]1CN(Cc2cc(F)c(C(=O)NS(=O)(=O)C3CC3)cc2C2CC2)CCN1[C@@H](C)c1cc(Cl)cc(Cl)c1 [Example 568]; 9.5

// next entry
Value of IC50 reported for the molecule O=C(NS(=O)(=O)C1CC1)c1cc(C2CC2)c(CN2CCC(Oc3ccc(Cl)cc3Cl)CC2)cc1F [Example 547, trifluoroacetic acid salt] is 8.2

====

Molecular target: UniProt Q15858
Test: Patch voltage clamp electrophysiological assay (EP), NaV1.7
Type: cell-based
Settings: HEK-293 cells stably expressing human NaV1.7 with β1 subunit, whole-cell patch clamp, holding −60 mV
Procedure: Electrophysiological Assay (EP) (In vitro Assay) Control sodium currents were measured in 0.5% DMSO. Series resistance compensation was applied (60-80%).
Where a name gives a salt, the structure may show the parent alone.
measured_metric: pIC50
Notebook: values listed as pIC50 are -log10 of the concentration (mol/L).

The examples below pair each entry with its known result.
O=C(NS(=O)(=O)N1CCC1)c1cc(C2CC2)c(O[C@@H]2CCCN(Cc3ccc(F)cc3Cl)C2)cc1F [Example 6]; 9.05
CC(C)(c1cc(Cl)cc(Cl)c1)N1CCC[C@@H](Oc2cc(F)c(C(=O)NS(=O)(=O)C3CC3)cc2C2CC2)C1 [Example 495, trifluoroacetic acid salt]; 9.70
C[C@@H](c1cc(Cl)cc(Cl)c1)N1CCC(COc2cc(F)c(C(=O)NS(C)(=O)=O)cc2C2CC2)CC1 [Example 100]; 8.24
CC(C)Oc1ncc(CN2CCC(COc3cc(F)c(C(=O)NS(C)(=O)=O)cc3C3CC3)CC2)cc1Cl [Example 217]; 8.60
O=C(NS(=O)(=O)N1CCC1)c1cc(C2CC2)c(O[C@H]2CCCN(Cc3ccccc3)C2)cc1F [Example 2]; 5.97

Value of pIC50 reported for the molecule CS(=O)(=O)NC(=O)c1cc(C2CC2)c(OCC2CCN(Cc3cc(Cl)cc(Cl)c3C#N)CC2)cc1F [Example 594] is 8.08

Value of pIC50 reported for the molecule COc1ccc(CN2CCC[C@@H](Oc3cc(F)c(C(=O)NS(C)(=O)=O)cc3C3CC3)C2)c(C)c1 [Example 434, trifluoroacetic acid salt] is 7.89

Value of pIC50 reported for the molecule O=C(NS(=O)(=O)C1CC1)c1cc(C2CC2)c(OCC2CCN(Cc3cc(Cl)cc(Cl)c3)CC2)cc1F [Example 259] is 7.64

Value of pIC50 reported for the molecule COC[C@@H](c1cc(Cl)cc(Cl)c1)N1CCC(COc2cc(F)c(C(=O)NS(=O)(=O)C3CC3)cc2C2CC2)CC1 (single isomer, unassigned) [Example 164] is 8.48

Value of pIC50 reported for the molecule CCS(=O)(=O)NC(=O)c1cc(C2CC2)c(OCC2CCN([C@@H](COC)c3cc(Cl)cc(Cl)c3)CC2)cc1F (single isomer, unassigned) [Example 168] is 8.52

Value of pIC50 reported for the molecule COC[C@@H](c1cc(Cl)cc(Cl)c1)N1CCC(COc2cc(F)c(C(=O)NS(C)(=O)=O)cc2C2CC2)CC1 (single isomer, unassigned) [Example 162] is 8.55

Value of pIC50 reported for the molecule COC[C@H](c1cc(Cl)cc(Cl)c1)N1CCC(COc2cc(F)c(C(=O)NS(=O)(=O)C3CC3)cc2C2CC2)CC1 (single isomer, unassigned) [Example 165] is 8.62

Value of pIC50 reported for the molecule C[C@H](c1ccc(Cl)c(C2CC2)n1)N1CCC[C@@H](Oc2cc(F)c(C(=O)NS(C)(=O)=O)cc2C2CC2)C1 (single isomer, unassigned) [Example 309] is 8.52

Value of pIC50 reported for the molecule CS(=O)(=O)NC(=O)c1cc(C2CC2)c(OCC2(F)CCN(Cc3cc(C(F)(F)F)cc(Cl)c3F)CC2)cc1F [Example 346, trifluoroacetic acid salt] is 8.66

Value of pIC50 reported for the molecule CCS(=O)(=O)NC(=O)c1cc(C2CC2)c(OCC2CCN([C@@H](c3cc(Cl)cc(Cl)c3)C(C)(C)OC)CC2)cc1F (single isomer, unassigned) [Example 208] is 8.52

====

Biological target: hNav1.7 (Homo sapiens (Human), UniProt Q15858)
Sequence (Q15858 other isoform, or with tags, fused parts or gaps): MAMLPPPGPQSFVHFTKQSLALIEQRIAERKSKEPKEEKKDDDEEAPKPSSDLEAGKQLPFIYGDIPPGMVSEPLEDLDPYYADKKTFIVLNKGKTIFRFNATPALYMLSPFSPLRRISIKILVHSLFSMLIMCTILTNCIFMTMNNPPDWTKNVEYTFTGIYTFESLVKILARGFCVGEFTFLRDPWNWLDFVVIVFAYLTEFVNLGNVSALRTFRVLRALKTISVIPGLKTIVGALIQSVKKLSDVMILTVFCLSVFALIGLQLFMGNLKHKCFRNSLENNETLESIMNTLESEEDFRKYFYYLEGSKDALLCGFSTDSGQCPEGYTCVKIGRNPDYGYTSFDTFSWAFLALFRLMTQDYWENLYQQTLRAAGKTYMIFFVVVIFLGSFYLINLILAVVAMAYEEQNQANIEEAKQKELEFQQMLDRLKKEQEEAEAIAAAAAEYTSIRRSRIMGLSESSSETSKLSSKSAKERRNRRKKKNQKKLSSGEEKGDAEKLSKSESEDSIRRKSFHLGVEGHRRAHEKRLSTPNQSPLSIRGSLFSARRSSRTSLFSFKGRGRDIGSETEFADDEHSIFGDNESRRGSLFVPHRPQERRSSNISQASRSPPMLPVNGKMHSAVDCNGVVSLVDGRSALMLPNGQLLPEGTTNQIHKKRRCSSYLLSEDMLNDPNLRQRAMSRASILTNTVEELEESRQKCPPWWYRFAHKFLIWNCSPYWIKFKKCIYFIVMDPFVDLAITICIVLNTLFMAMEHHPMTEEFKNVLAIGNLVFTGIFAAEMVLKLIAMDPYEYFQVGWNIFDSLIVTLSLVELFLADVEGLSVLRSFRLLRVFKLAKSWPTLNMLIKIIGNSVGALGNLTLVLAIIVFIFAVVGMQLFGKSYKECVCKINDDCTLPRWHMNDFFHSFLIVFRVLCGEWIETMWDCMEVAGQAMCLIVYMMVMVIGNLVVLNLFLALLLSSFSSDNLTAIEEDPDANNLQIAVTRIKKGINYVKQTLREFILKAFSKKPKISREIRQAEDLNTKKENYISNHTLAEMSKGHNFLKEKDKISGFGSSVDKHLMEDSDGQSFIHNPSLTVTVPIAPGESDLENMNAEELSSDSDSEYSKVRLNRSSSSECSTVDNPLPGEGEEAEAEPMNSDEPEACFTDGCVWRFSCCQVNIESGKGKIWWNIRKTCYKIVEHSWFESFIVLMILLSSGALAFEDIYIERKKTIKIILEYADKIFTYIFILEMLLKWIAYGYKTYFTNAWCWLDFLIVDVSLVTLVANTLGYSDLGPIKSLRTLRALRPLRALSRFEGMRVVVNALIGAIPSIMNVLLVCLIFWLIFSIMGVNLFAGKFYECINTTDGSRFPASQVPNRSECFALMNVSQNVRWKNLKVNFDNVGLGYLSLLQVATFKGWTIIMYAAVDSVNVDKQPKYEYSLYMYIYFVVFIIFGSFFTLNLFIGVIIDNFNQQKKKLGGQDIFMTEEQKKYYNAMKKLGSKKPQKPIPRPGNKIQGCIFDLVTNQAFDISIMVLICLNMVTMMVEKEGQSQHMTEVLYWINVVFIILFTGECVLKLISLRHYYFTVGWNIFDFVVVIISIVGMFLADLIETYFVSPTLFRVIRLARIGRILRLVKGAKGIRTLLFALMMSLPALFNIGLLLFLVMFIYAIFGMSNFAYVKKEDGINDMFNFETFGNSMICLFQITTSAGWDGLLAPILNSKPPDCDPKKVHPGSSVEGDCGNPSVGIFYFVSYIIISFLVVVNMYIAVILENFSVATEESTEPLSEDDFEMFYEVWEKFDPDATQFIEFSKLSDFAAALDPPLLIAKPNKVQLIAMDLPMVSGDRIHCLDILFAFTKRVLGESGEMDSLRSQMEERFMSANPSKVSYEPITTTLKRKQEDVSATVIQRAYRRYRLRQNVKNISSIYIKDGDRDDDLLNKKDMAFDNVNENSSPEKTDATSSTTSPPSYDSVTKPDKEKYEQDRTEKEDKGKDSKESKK
Sequence (Q07699 19-218 partner): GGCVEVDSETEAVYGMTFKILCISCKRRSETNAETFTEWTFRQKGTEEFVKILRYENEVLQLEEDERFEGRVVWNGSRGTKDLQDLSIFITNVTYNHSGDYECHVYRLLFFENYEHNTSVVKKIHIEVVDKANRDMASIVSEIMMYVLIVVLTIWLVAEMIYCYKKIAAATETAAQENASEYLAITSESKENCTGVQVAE
Assay: Tritiated sulfonamide competitive binding to membranes from cells expressing hNav1.7 and the β1 subunit
Details: read-out: Ligand Binding Assay; 100 pM [3H]compound, membranes with hNav1.7 and β1 subunit, 18 h, room temperature
Counter-ions that a name gives are not always drawn.
Measured IC50 by item
Write it as a number; the unit nM goes unstated.

O=C(NS(=O)(=O)C1CC1)c1cc(C2CC2)c(CN2CCC(Oc3cccc(C(F)(F)F)c3)CC2)cc1F [Example 502, trifluoroacetic acid salt]; 6.8
CC1(COc2cc(F)c(C(=O)NS(C)(=O)=O)cc2C2CC2)CCN(C2(c3cc(Cl)cc(Cl)c3)COC2)CC1; 7.6

Entry `CC(C)(c1cc(Cl)cc(Cl)c1)N1CCC(COc2cc(F)c(C(=O)NS(C)(=O)=O)cc2C2CC2)CC1` , tested on hNav1.7 (Homo sapiens (Human), UniProt Q15858), has a reported IC50 of 1.7

====

Measured pIC50 by item
Target: hNav1.7 (Homo sapiens (Human), UniProt Q15858)
Assay: Tritiated sulfonamide competitive binding to membranes from cells expressing hNav1.7 and the β1 subunit;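 note: Filter-bound radioactivity counted by liquid scintillation, nonspecific binding defined with excess unlabelled ligand, IC50 fitted to percent inhibition of specific binding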
Counter-ions that a name gives are not always drawn.
Notebook: values listed as pIC50 are -log10 of the concentration (mol/L).

The examples below pair each entry with its known result.
O=C(NS(=O)(=O)C1CC1)c1cc(C2CC2)c(CN2CCN(S(=O)(=O)c3cc(Cl)cc(Cl)c3)CC2)cc1F [Example 527, trifluoroacetic acid salt]; 8.00
CS(=O)(=O)NC(=O)c1cc(C2CC2)c(O[C@@H]2CCCN(Cc3ccccc3Cl)C2)cc1F [Example 24]; 8.22
C[C@H](c1cc(Cl)cc(Cl)c1)N1CCC(COc2cc(F)c(C(=O)NS(=O)(=O)C3CC3)cc2C2CC2)CC1 [Example 269]; 8.47
CS(=O)(=O)NC(=O)c1cc(C2CC2)c(OCC2CCN(Cc3cc(Cl)cc(C#N)c3)CC2)cc1F [Example 590]; 7.59
O=C(NS(=O)(=O)C1CC1)c1cc(C2CC2)c(CN2CCC(OCc3cc(Cl)cc(Cl)c3)CC2)cc1F [Example 512, trifluoroacetic acid salt]; 7.78

Value of pIC50 reported for the molecule CS(=O)(=O)NC(=O)c1cc(C2CC2)c(O[C@@H]2CCCN(Cc3ccc(F)cc3)C2)cc1F [Example 20] is 7.51

Value of pIC50 reported for the molecule O=C(NS(=O)(=O)C1CC1)c1cc(C2CC2)c(CN2CCC(S(=O)(=O)c3cc(Cl)cc(Cl)c3)CC2)cc1F [Example 533, trifluoroacetic acid salt] is 6.90

Value of pIC50 reported for the molecule O=C(NS(=O)(=O)N1CCC1)c1cc(C2CC2)c(O[C@@H]2CCCN(Cc3ccc(Cl)c(Cl)c3)C2)cc1F [Example 19] is 8.31

Value of pIC50 reported for the molecule CC(C)(c1cccc(Cl)c1)N1CCC[C@@H](Oc2cc(F)c(C(=O)NS(C)(=O)=O)cc2C2CC2)C1 [Example 529, trifluoroacetic acid salt] is 8.62

====

Biological target: hNav1.7 (Homo sapiens (Human))
Test: Tritiated sulfonamide competitive binding to membranes from cells expressing hNav1.7 and the β1 subunit
Conditions: read-out: Ligand Binding Assay; 100 pM [3H]compound, membranes with hNav1.7 and β1 subunit, 18 h, room temperature
Structures can show the parent of a compound that is named as a salt.
Our labelling divides records by IC50 into ranges: interval 1: < 6 nM; interval 2: ≥ 6 nM and < 40 nM; interval 3: ≥ 40 nM

// below: answered molecules
CS(=O)(=O)NC(=O)c1cc(C2CC2)c(OCC2CCN(C(c3cc(Cl)cc(Cl)c3)C(F)F)CC2)cc1F (stereo in doubt); interval 2
CS(=O)(=O)NC(=O)c1cc(C2CC2)c(OC[C@@H]2CCN(Cc3cc(Cl)cc(Cl)c3)C(=O)C2)cc1F (single isomer, unassigned); interval 3
O=C(NS(=O)(=O)C1CC1)c1cc(C2CC2)c(CN2CCC(Oc3ncc(C4CC4)cc3Cl)CC2)cc1F [Example 474, hydrochloride]; interval 1

Q. Classify this molecule: O=C(NS(=O)(=O)N1CCC1)c1cc(C2CC2)c(OCC2CC3CCC(C2)N3Cc2ccccc2Cl)cc1F (centres unmarked)
A. interval 2

Q. Classify this molecule: `CS(=O)(=O)NC(=O)c1cc(C2CC2)c(OCC2CN([C@@H](c3ccccc3)c3ccncc3)C2)cc1F`
A. interval 3

Q. Classify this molecule: `CCS(=O)(=O)NC(=O)c1cc(C2CC2)c(OCC2CCN([C@H](COC)c3ccc(Cl)cc3Cl)CC2)cc1F`
A. interval 1

Q. Classify this molecule: `CS(=O)(=O)NC(=O)c1cc(C2CC2)c(OC[C@@H]2CCCN(Cc3ccc(F)cc3Cl)C2)cc1F`
A. interval 2

Q. Classify this molecule: CC(C)(c1cc(Cl)cc(Cl)c1)N1CCC[C@@H](Oc2cc(F)c(C(=O)NS(=O)(=O)C3CC3)cc2C2CC2)C1 [Example 495, trifluoroacetic acid salt]
A. interval 1

Q. Classify this molecule: `CC(C)N(C(=O)CN1CCC[C@@H](Oc2cc(F)c(C(=O)NS(C)(=O)=O)cc2C2CC2)C1)C(C)C`
A. interval 3

Q. Classify this molecule: CCS(=O)(=O)NC(=O)c1cc(C2CC2)c(OCC2CCN([C@H](COC)c3cc(Cl)cc(Cl)c3)CC2)cc1F (single isomer, unassigned)
A. interval 2

Source of measurements: patent US9546164B2
